Biological target: human AR (Homo sapiens, UniProt P10275)
Sequence (P10275 1-920): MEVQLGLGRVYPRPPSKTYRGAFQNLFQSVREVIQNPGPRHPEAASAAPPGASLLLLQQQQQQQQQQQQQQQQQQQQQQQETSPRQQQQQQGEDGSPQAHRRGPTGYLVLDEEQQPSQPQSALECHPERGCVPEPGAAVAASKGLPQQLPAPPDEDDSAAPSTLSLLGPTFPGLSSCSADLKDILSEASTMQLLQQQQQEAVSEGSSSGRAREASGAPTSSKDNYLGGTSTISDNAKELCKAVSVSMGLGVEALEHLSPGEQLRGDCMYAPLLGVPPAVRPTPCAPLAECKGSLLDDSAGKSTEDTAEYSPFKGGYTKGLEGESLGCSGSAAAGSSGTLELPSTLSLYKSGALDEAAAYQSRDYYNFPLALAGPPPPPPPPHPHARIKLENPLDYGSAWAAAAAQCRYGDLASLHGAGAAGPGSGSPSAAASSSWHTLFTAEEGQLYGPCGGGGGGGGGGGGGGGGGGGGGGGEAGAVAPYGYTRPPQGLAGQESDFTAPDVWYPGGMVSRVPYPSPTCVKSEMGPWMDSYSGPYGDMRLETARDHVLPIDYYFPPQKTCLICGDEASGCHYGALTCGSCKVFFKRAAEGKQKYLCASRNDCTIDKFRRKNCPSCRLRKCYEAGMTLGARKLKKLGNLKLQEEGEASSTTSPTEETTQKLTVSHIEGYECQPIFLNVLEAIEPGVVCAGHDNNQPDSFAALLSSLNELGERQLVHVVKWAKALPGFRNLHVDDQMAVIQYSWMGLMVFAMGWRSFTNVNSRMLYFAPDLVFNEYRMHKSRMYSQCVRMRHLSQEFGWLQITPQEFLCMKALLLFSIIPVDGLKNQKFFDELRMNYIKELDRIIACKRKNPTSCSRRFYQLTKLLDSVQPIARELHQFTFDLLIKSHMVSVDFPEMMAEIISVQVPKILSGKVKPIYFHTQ
Assay: AR whole cell competitive binding assay (3H-DHT), transfected COS-1 cells
Design: expressed in transfected cells; transient transfection with pRShAR
Details: AR Binding Ki (nM), COS-1 cells, 1 nM 3H-DHT, Cheng-Prusoff from IC50
Method: AR Binding: For the whole cell binding assay, COS-1 cells in 96-well microtiter plates containing DMEM-10% FBS were transfected as described above with the following plasmid DNA: pRShAR (2 ng/well), pRS-β-Gal (50 ng/well) and pGEM (48 ng/well). Six hours after transfection, media was removed, the cells were washed with PBS and fresh media was added. […] After correcting for non-specific binding, IC50 values were determined. […] The IC50 value was determined graphically from a log-logit plot of the data. […]
Decision: Ki beneath 60 nM gives MET; Ki meeting or exceeding 60 nM gives NOT MET.

- molecule: "O=c1cc(C(F)(F)F)c2c3c(ccc2[nH]1)N(Cc1ccsc1)C1CCCC31 (racemic) [Compound 127]"
  system_under_test: "human AR (Homo sapiens, UniProt P10275)"
  category_label: "MET"
- molecule: "CCCN1CCCc2cc3[nH]c(=O)cc(C(F)(F)F)c3cc21 [Compound 199]"
  system_under_test: "human AR (Homo sapiens, UniProt P10275)"
  category_label: "NOT MET"
- molecule: "O=c1cc(C(F)(F)F)c2c3c(ccc2[nH]1)N(CC(F)(F)F)C1CCCC31 (racemic) [Compound 119]"
  system_under_test: "human AR (Homo sapiens, UniProt P10275)"
  category_label: "MET"
- molecule: "CC1(C)CCc2c(ccc3[nH]c(=O)cc(C(F)(F)F)c23)N1 [Compound 104]"
  system_under_test: "human AR (Homo sapiens, UniProt P10275)"
  category_label: "MET"
- molecule: "CC1c2c(ccc3[nH]c(=O)cc(C(F)(F)F)c23)N(CC(F)(F)F)C1C (racemic) [Compound 123]"
  system_under_test: "human AR (Homo sapiens, UniProt P10275)"
  category_label: "MET"
- molecule: "O=c1cc(C(F)(F)F)c2c3c(ccc2[nH]1)N(CC(F)(F)F)CC3c1ccccc1 (racemic) [Compound 141]"
  system_under_test: "human AR (Homo sapiens, UniProt P10275)"
  category_label: "NOT MET"
- molecule: "CC1CCc2cc3[nH]c(=O)cc(C(F)(F)F)c3cc2N1CC1CC1 (stereo not shown) [Compound 195]"
  system_under_test: "human AR (Homo sapiens, UniProt P10275)"
  category_label: "MET"
- molecule: "O=c1cc(C(F)(F)F)c2cc3c(cc2[nH]1)CCCN3CC1CC1 [Compound 201]"
  system_under_test: "human AR (Homo sapiens, UniProt P10275)"
  category_label: "MET"
- molecule: "CCc1[nH]c2c(ccc3[nH]c(=O)cc(C(F)(F)F)c32)c1C [Compound 175]"
  system_under_test: "human AR (Homo sapiens, UniProt P10275)"
  category_label: "NOT MET"
- molecule: "O=c1cc(C(F)(F)F)c2c3c(ccc2[nH]1)N(CC(F)(F)Cl)C1CCCC31 (racemic) [Compound 129]"
  system_under_test: "human AR (Homo sapiens, UniProt P10275)"
  category_label: "MET"
- molecule: "CC1(C)C=Cc2c(ccc3[nH]c(=O)cc(C(F)(F)F)c23)N1 [Compound 106]"
  system_under_test: "human AR (Homo sapiens, UniProt P10275)"
  category_label: "MET"
- molecule: "O=c1cc(C(F)(F)F)c2cc3c(cc2[nH]1)CCCN3CC(F)(F)F [Compound 198]"
  system_under_test: "human AR (Homo sapiens, UniProt P10275)"
  category_label: "MET"
- molecule: "O=c1cc(C(F)(F)F)c2cc3c(cc2[nH]1)c1c(n3CC(F)(F)F)CCC1 [Compound 159]"
  system_under_test: "human AR (Homo sapiens, UniProt P10275)"
  category_label: "NOT MET"

----------
target: human AR (Homo sapiens, UniProt P10275); assay: Co-transfection assay, AR agonist activity, CV-1 cells; assay type: cell-based; parameters: expressed in transfected cells; host or cells: CV-1 cells (African green monkey kidney fibroblasts), transient transfection with pRShAR; conditions: AR Agonist CV-1 Cells Potency (nM), agonist potency or EC50
measured_metric: EC50

- molecule: "CC(C)C1c2c(ccc3[nH]c(=O)cc(C(F)(F)F)c23)N(CC(F)(F)F)C1C (racemic)"
  system_under_test: "human AR (Homo sapiens, UniProt P10275)"
  result: "> 10000 nM"
- molecule: "CCC1=CC(C)(C)Oc2cc3oc(=O)cc(C(F)(F)F)c3cc21"
  system_under_test: "human AR (Homo sapiens, UniProt P10275)"
  result: "> 10000 nM"
- molecule: "CCC1C(C)c2c(ccc3[nH]c(=O)ccc23)N1CC(F)(F)F (racemic)"
  system_under_test: "human AR (Homo sapiens, UniProt P10275)"
  result: "> 10000 nM"

----------
Form field: IC50 (one value per entry).
biological target: human AR (Homo sapiens); assay: Co-transfection assay, AR antagonist activity in presence of DHT, CV-1 cells; format: cell-based; set-up: expressed in transfected cells; host or cells: CV-1 cells (African green monkey kidney fibroblasts), transient transfection with pRShAR; conditions: AR Antagonist CV-1 Cells Potency (nM), CV-1 cells; antagonist potency or IC50, DHT at its EC50 concentration

- molecule: "CC1c2c(ccc3[nH]c(=O)cc(C(F)(F)F)c23)N(CC(F)(F)F)C1C (racemic)"
  unit_of_measurement: "nM"
  comparative_sign: ">"
  IC50: 10000
- molecule: "O=c1cc(C(F)(F)F)c2c3c(ccc2[nH]1)N(CC(F)(F)Cl)C1CCCC31 (racemic)"
  unit_of_measurement: "nM"
  comparative_sign: ">"
  IC50: 10000
- molecule: "CC1(C)CCc2c(ccc3[nH]c(=O)cc(C(F)(F)F)c23)N1CC(F)(F)F"
  unit_of_measurement: "nM"
  comparative_sign: ">"
  IC50: 10000
- molecule: "CCC1CCOc2cc3c(cc21)c(C(F)(F)F)c(F)c(=O)n3C (racemic)"
  unit_of_measurement: "nM"
  comparative_sign: "="
  IC50: 311
- molecule: "CCc1[nH]c2c(ccc3[nH]c(=O)cc(C(F)(F)F)c32)c1C"
  unit_of_measurement: "nM"
  comparative_sign: "="
  IC50: 11

----------
We begin with a simple list: items and their reported EC50.
biological target: UniProt:P10275; experiment: Co-transfection assay, AR agonist activity, CV-1 cells; type: cell-based; design: expressed in transfected cells; host or cells: CV-1 cells (African green monkey kidney fibroblasts), transient transfection with pRShAR; settings: AR Agonist CV-1 Cells Potency (nM), agonist potency or EC50

- compound: "CCc1c(C)c2cc3[nH]c(=O)cc(C(F)(F)F)c3cc2n1CC(F)(F)F [Compound 163]"
  EC50: "> 10000 nM"
- compound: "Cc1[nH]c2c(ccc3[nH]c(=O)cc(C(F)(F)F)c32)c1CCO [Compound 177]"
  EC50: "> 10000 nM"
- compound: "CC1=CC(C)(C)Oc2cc3oc(=O)cc(C(F)(F)F)c3cc21 [Compound 223]"
  EC50: "> 10000 nM"
